- systemName: feline FcRn complex (FcRn-α subunit and β-microglobulin), biotin labeled (feline)
- protocolText: SPR, pH 6
endpoint: pKd
# pKd is unitless: minus log10 of the molar concentration; print number only

Value lookup for pKd; key = feline IgG1a T256E (antibody, part only; not given: variable domains and light chain, not shown: another chain or arm of the molecule) constant: ASTTAPSVFPLAPSCGTTSGATVALACLVLGYFPEPVTVSWNSGALTSGVHTFPAVLQASGLYSLSSMVTVPSSRWLSDTFTCNVAHPPSNTKVDKTVRKTDHPPGPKPCDCPKCPPPEMLGGPSIFIFPPKPKDTLSISREPEVTCLVVDLGPDDSDVQITWFVDNTQVYTAKTSPREEQFNSTYRVVSVLPILHQDWLKGKEFKCKVNSKSLPSPIERTISKAKGQPHEPQVYVLPPAQEELSRNKVSVTCLIKSFHPPDIAVEWEITGQPEPENNYRTTPPQLDSDGTYFVYSKLSVDRSHWQRGNTYTCSVSHEALHSHHTQKSLTQSPGK
7.29

Value lookup for pKd; key = feline IgG1a T250E (antibody, part only; not given: Variable domains, not shown: another chain or arm of the molecule) constant: ASTTAPSVFPLAPSCGTTSGATVALACLVLGYFPEPVTVSWNSGALTSGVHTFPAVLQASGLYSLSSMVTVPSSRWLSDTFTCNVAHPPSNTKVDKTVRKTDHPPGPKPCDCPKCPPPEMLGGPSIFIFPPKPKDELSISRTPEVTCLVVDLGPDDSDVQITWFVDNTQVYTAKTSPREEQFNSTYRVVSVLPILHQDWLKGKEFKCKVNSKSLPSPIERTISKAKGQPHEPQVYVLPPAQEELSRNKVSVTCLIKSFHPPDIAVEWEITGQPEPENNYRTTPPQLDSDGTYFVYSKLSVDRSHWQRGNTYTCSVSHEALHSHHTQKSLTQSPGK
8.22
